# System: RSK1(Kin.Dom.1-N-terminal)
# Construct: gene RPS6KA1
# reported_conditions: concentration: 1 μM,replicates: in singlicate; n = 1;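 also: KINOMEscan kinase panel screen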
# reported %Inh; entries follow
Response body: numeric value in %, unit text excluded.

Known %Inh results, listed for orientation:
compound=C[C@@H](Oc1cc(-c2cnn(C3CCNCC3)c2)cnc1N)c1c(Cl)ccc(F)c1Cl system_name=RSK1(Kin.Dom.1-N-terminal) assay_readout=%Inh measure_unit=% value_observed=14
compound=CCn1c(-c2nonc2N)nc2c(C#CC(C)(C)O)nc(OCCN)cc21.Cl.Cl system_name=RSK1(Kin.Dom.1-N-terminal) assay_readout=%Inh measure_unit=% value_observed=0

// sample "Cl.Cl.NC[C@H](Cc1ccc(C(F)(F)F)cc1)NC(=O)c1cc(Br)c(-c2ccnc3[nH]ccc23)s1" , its %Inh was 20

// sample "NC(=O)c1cc(-c2ccccc2)cc2c(C3CCNCC3)c[nH]c12" , its %Inh was 8

// sample "CC(C)Nc1cc(-c2ccc3c(N)n[nH]c3c2)nc(N)n1" , its %Inh was 28

// sample "O=C(NCCCN1CCOC1=O)c1cnc(NCc2cc(Cl)ccc2Cl)nc1NC1CCCC1" , its %Inh was 8

// sample "CC(C)N1C(=O)Cc2cc(Nc3ncc(C(F)(F)F)c(NCc4cccc(S(C)(=O)=O)c4)n3)ccc21" , its %Inh was 21

// sample "Cc1ccc2c(-c3ccncc3)c(-c3ccc(F)cc3)nn2c1.Cl" , its %Inh was 0

// sample "Cc1ccc(-n2nc(C(C)(C)C)cc2NC(=O)Nc2ccc(OCCN3CCOCC3)c3ccccc23)cc1" , its %Inh was 100

---

# System: KIT
# reported_conditions: concentration: 1 μM,replicates: in singlicate; n = 1
If the reported %Inh equals or exceeds 50%, assign met. If not, assign not met.

Sample answers from the record:
compound=C[C@@H](Oc1cc(-c2cnn(C3CCNCC3)c2)cnc1N)c1c(Cl)ccc(F)c1Cl assigned_category="not met"
compound="CN(C)CC(O)COc1ccc(Nc2nccc(-c3cnn4nc(N5CCOCC5)ccc34)n2)cc1 (stereo not drawn)" assigned_category="not met"
compound=O=C(NCCNc1ccnc(NCc2ccc(F)cc2)n1)c1cc2ccccc2s1 assigned_category=met
compound=CCN(CC)CCCCNc1ncc2cc(-c3c(Cl)cccc3Cl)c(NC(=O)NC(C)(C)C)nc2n1 assigned_category=met
compound=Cc1ccc(-n2nc(C(C)(C)C)cc2NC(=O)Nc2ccc(OCCN3CCOCC3)c3ccccc23)cc1 assigned_category=met
compound=Cl.Cl.NC[C@H](Cc1ccc(C(F)(F)F)cc1)NC(=O)c1cc(Br)c(-c2ccnc3[nH]ccc23)s1 assigned_category="not met"
compound=COc1ccc(C[C@@H](CN)NC(=O)c2cc(Br)c(-c3ccnc4[nH]ccc34)s2)cc1.Cl.Cl assigned_category=met
compound=Cc1ccc2c(-c3ccncc3)c(-c3ccc(F)cc3)nn2c1.Cl assigned_category="not met"

Moving on to another compound below.
Query block: // inclusive: %Inh at least 50%? input: "CC(C)Nc1cc(-c2ccc3c(N)n[nH]c3c2)nc(N)n1"
Result block: not met

---

# Tested on: WEE1
# reported_conditions: concentration: 1 μM,replicates: in singlicate; n = 1
assay_readout: %Inh (%)
Response body: numeric value in %, unit text excluded.

Known %Inh results, listed for orientation:
compound=Cl.Cl.NC[C@H](CC1CCCCC1)NC(=O)c1cc(Br)c(-c2ccnc3[nH]ccc23)s1 measure_unit=% value_observed=3
compound="CN(C)CC(O)COc1ccc(Nc2nccc(-c3cnn4nc(N5CCOCC5)ccc34)n2)cc1 (centres unmarked)" measure_unit=% value_observed=8
compound=CCN(CC)CCCCNc1ncc2cc(-c3c(Cl)cccc3Cl)c(NC(=O)NC(C)(C)C)nc2n1 measure_unit=% value_observed=3
compound=CC(C)Nc1cc(-c2ccc3c(N)n[nH]c3c2)nc(N)n1 measure_unit=% value_observed=8
compound=CN(C)CCOc1ccc(-c2cc(-c3c[nH]nc3-c3ccccn3)ccn2)cc1 measure_unit=% value_observed=0

// sample "CNC(=O)c1ccccc1Sc1ccc2c(/C=C/c3ccccn3)n[nH]c2c1" , its %Inh was 0

// sample "C[C@H]1Oc2cc(cnc2N)-c2c(nn(C)c2C#N)CN(C)C(=O)c2ccc(F)cc21" , its %Inh was 0

// sample "Cc1n[nH]c2ccc(-c3cc(OC[C@@H](N)Cc4ccccc4)cnc3-c3ccoc3)cc12.O=C(O)C(F)(F)F.O=C(O)C(F)(F)F" , its %Inh was 35
